# System: yellow nutsedge
# test_details: Preemergent control of plant species
# Format: in vivo, Cyperus esculentus
# assay_conditions: Cyperus, pre-emergence, 336 h; 0.25 lb/acre; read-out: percent preemergent control
Items are presented alongside their recorded pest or weed control at 280.212 g/ha.
Number in %, nothing else.

[[record]]
sample_smiles = "Cc1ccc(F)c(NS(=O)(=O)c2nc3nccc(C)n3n2)c1F"
test_system = "yellow nutsedge"
experimental_readout = "pest or weed control at 280.212 g/ha"
readout_unit = "%"
number = 100

[[record]]
sample_smiles = "O=S(=O)(Nc1c(Cl)cccc1Cl)c1nc2ncccn2n1"
test_system = "yellow nutsedge"
experimental_readout = "pest or weed control at 280.212 g/ha"
readout_unit = "%"
number = 100

[[record]]
sample_smiles = "Cc1ccn2nc(S(=O)(=O)Nc3c(C)nn(C)c3C(F)(F)F)nc2n1"
test_system = "yellow nutsedge"
experimental_readout = "pest or weed control at 280.212 g/ha"
readout_unit = "%"
number = 20

[[record]]
sample_smiles = "Cc1cccc([N+](=O)[O-])c1NS(=O)(=O)c1nc2nccc(C)n2n1"
test_system = "yellow nutsedge"
experimental_readout = "pest or weed control at 280.212 g/ha"
readout_unit = "%"
number = 80

[[record]]
sample_smiles = "COC(=O)c1cccc(F)c1NS(=O)(=O)c1nc2nc(C)cc(C)n2n1"
test_system = "yellow nutsedge"
experimental_readout = "pest or weed control at 280.212 g/ha"
readout_unit = "%"
number = 100


Entry CCOCCOC(=O)c1cccc(C)c1NS(=O)(=O)c1nc2nc(C)cc(C)n2n1 under yellow nutsedge had pest or weed control at 280.212 g/ha of 100

Entry CCCCC(=O)N(c1c(F)cccc1F)S(=O)(=O)c1nc2nc(C)ccn2n1 under yellow nutsedge had pest or weed control at 280.212 g/ha of 100

All figures here come from patent US4740233A.
